EXPERIMENTAL SYSTEM: Cannabinoid receptor 1 (Homo sapiens)
Sequence (P21554 whole entry): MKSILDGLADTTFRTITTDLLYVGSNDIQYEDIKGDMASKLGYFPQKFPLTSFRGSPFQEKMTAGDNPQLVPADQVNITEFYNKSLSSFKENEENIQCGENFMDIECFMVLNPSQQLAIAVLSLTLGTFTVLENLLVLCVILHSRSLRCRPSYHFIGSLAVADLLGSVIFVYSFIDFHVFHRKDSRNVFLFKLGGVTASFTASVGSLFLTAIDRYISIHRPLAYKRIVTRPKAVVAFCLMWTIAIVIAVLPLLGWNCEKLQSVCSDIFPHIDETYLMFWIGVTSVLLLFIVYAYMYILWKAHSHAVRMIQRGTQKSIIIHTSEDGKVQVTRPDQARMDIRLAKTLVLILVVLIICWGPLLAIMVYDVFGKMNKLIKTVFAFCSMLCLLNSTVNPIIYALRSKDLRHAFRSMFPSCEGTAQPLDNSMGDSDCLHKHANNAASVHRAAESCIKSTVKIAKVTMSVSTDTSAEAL
METHOD DESCRIPTION: Displacement of [3H]CP55940 from human CB1 receptor transfected in HEK293 cells after 90 mins by liquid scintillation spectrophotometry
Below, each entry is listed with its recorded Ki.

Illustrative cases are given below, each with its answer.
>  <COMPOUND STRUCTURE>
CCCCCCC(C)(C)C1=CC2=C(C(=O)C1=O)c1[nH]ncc1C(C)(C)O2

>  <EXPERIMENTAL SYSTEM>
Cannabinoid receptor 1 (Homo sapiens)

>  <Ki>
> 40 µM

$$$$
>  <COMPOUND STRUCTURE>
CCCCCCC(C)(C)C1=CC2=C(C(=O)C1=O)c1c(cnn1CC)C(C)(C)O2

>  <EXPERIMENTAL SYSTEM>
Cannabinoid receptor 1 (Homo sapiens)

>  <Ki>
> 40 µM

$$$$

Now consider the entry below.
Provide the documented Ki with Cannabinoid receptor 1 (Homo sapiens) as the system for CCCCCCC(C)(C)C1=CC2=C(C(=O)C1=O)c1nn(C)cc1C(C)(C)O2
> 40 µM

The origin of these recorded values is ChEMBL document CHEMBL3414526.
